- assay-remarks: Oral bioavailability in Sprague-Dawley rat at 10 mg/kg, po (AUC po, jv/AUC iv, jv)
- Assay type: ADME, organism-based
- test-context: in vivo
measured-metric: bioavailability (%)
Could you give me the number in %? Just the number is fine.

Quickly give me recorded bioavailability for `CCCCCC(=O)NCc1ccc(O)c(-c2cccc(-c3cc4cc(C(=N)NO)ccc4[nH]3)c2O)c1` 11

* * *

- assay-remarks: Tmax in jugular vein catheter of Sprague-Dawley rat at 10 mg/kg, po
- Assay type: ADME, organism-based
- Design: dose 10 mg/kg, route oral
- test-context: in vivo
measured-metric: Tmax (min)
Could you give me the number in min? Just the number is fine.

CCCCCC(=O)NCc1ccc(O)c(-c2cccc(-c3cc4cc(C(=N)N)ccc4[nH]3)c2O)c1: 30

Okay, now this compound:
Quickly give me recorded Tmax for `CCCCCC(=O)NCc1ccc(O)c(-c2cccc(-c3cc4cc(C(=N)NO)ccc4[nH]3)c2O)c1` 30
